read-out: Bcl-2 (BAD) gene, BAD (gene 572); experiment: LTEA_HepaRG_BAD: Life Technologies and Expression Analysis (LTEA) Assay for Bcl-2 (BAD) gene using HepaRG (AID 2283469); conditions: mRNA level, 48 h; actives raise or lower the signal
Calls of active or inactive are those of the source. How the source made its calls: active means hit-call score of the fitted dose curve at least 0.9, where 1 is the maximum; inactive means score below 0.9.
Classes used: yes for active, no for inactive

# Compound, Category
data = [
    ("CCCSC(=O)N(CCC)CCC", "no"),
    ("COc1cc(C=O)cc2c1[C@H](COC(N)=O)[C@]1(OC(C)=O)ON2C[C@H]2[C@@H]1N2C(C)=O", "yes"),
    ("Nc1ccc(Cc2ccc(N)cc2)cc1", "no"),
    ("N#CC(Br)(Br)C(N)=O", "no"),
    ("CCCCCOC(=O)c1ccccc1C(=O)OCCCCC", "no"),
    ("Cc1cccc(N)c1N", "no"),
    ("CCCCCCCCCCCCCN1CC(C)OC(C)C1 (stereo not drawn)", "no"),
    ("Nc1ccc(Oc2ccc(N)cc2)cc1", "no"),
    ("Clc1ccc(C(c2ccc(Cl)cc2)C(Cl)Cl)cc1", "no"),
    ("CC(C)(O)c1cnn2c(-c3ccc(F)c(-c4c(F)cccc4C#N)c3)cnc2n1", "no"),
    ("CCC[CH2][Sn]([Cl])([CH2]CCC)[CH2]CCC", "no"),
    ("[Cl-].[Cl-].[Hg+2]", "no"),
    ("CC(C)(C)OOC(C)(C)CCC(C)(C)OOC(C)(C)C", "no"),
]

----------
experiment: BSK_hDFCGF_Proliferation: Cell Proliferation Assessment in the BioMAP Diversity Plus: hDFCGF Assay (AID 2283059); conditions: primary human foreskin fibroblasts;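 further: curves fitted for both rise and fall of signal versus DMSO baseline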
Active and inactive are the calls of the source. The calls were made as follows: active = hit-call score of the fitted dose curve at least 0.9, where 1 is the maximum; inactive = score below 0.9.
Classes used: 1 = active, -1 = inactive

# Molecule, Category
rows = [
    ("N#CC(Br)Br", -1),
    ("CC(C)COC(=O)c1ccccc1C(=O)OCC(C)C", -1),
    ("O=C(Oc1ccc(Br)cc1)N1CCN2CCC1CC2", -1),
    ("COC(=O)Nc1nc2ccccc2[nH]1", 1),
    ("O=[N+]([O-])C(Br)(CO)CO", 1),
    ("COC(=O)c1ccccc1N", -1),
    ("C[C@]12C=CC3=C4CCC(=O)C=C4CC[C@H]3[C@@H]1CC[C@@H]2O", -1),
    ("C1=Cc2cccc3cccc1c23", -1),
    ("OCCCl", -1),
    ("Nc1cc(Cl)cc(C(=O)O)c1Cl", -1),
    ("Cc1ccc([N+](=O)[O-])cc1", -1),
    ("CS(=O)(=O)NC(=O)c1cc(Oc2ccc(C(F)(F)F)cc2Cl)ccc1[N+](=O)[O-]", -1),
    ("CCCCCCCCCCCCCN1CC(C)OC(C)C1 (centres undefined)", 1),
    ("Cc1cccc(N)c1N", -1),
]

----------
read-out: Transforming Growth Factor (TGFB1), TGFB1 (gene 7040); assay: LTEA_HepaRG_TGFB1: Life Technologies and Expression Analysis (LTEA) Assay for Transforming Growth Factor (TGFB1) Transporter using HepaRG (AID 2283533); details: mRNA level, 48 h; actives raise or lower the signal
Activity calls are given as the source filed them. How the source made its calls: active means hit-call score of the fitted dose curve at least 0.9, where 1 is the maximum; inactive means score below 0.9.
Classes used: 1 (active), -1 (inactive)

# Structure Notation, Category
measured = [
    ("CCCCOC(=O)c1ccccc1C(=O)OCc1ccccc1", -1),
    ("ClC1=C(Cl)[C@]2(Cl)[C@H]3[C@H]([C@@H]4C=C[C@H]3C4)[C@@]1(Cl)C2(Cl)Cl", -1),
    ("COc1cc(C=O)cc2c1[C@H](COC(N)=O)[C@]1(OC(C)=O)ON2C[C@H]2[C@@H]1N2C(C)=O", 1),
    ("Cn1cc(-c2ccccc2)c(=O)c(-c2cccc(C(F)(F)F)c2)c1", -1),
    ("Clc1ccccc1Cl", -1),
    ("COC(=O)c1ccccc1N", -1),
]
